Exercise: state measured pEC50 for each of the molecules provided.
biological target: GLP-1R (Homo sapiens); assay: GLP-1R Activation - cAMP Assay 2; format: cell-based; conditions: cAMP increase in CHO cells stably expressing GLP-1R; pre-spotted agonists; assay buffer or 100% Human Plasma (not given); 30 minutes
Sequence (P43220 24-463): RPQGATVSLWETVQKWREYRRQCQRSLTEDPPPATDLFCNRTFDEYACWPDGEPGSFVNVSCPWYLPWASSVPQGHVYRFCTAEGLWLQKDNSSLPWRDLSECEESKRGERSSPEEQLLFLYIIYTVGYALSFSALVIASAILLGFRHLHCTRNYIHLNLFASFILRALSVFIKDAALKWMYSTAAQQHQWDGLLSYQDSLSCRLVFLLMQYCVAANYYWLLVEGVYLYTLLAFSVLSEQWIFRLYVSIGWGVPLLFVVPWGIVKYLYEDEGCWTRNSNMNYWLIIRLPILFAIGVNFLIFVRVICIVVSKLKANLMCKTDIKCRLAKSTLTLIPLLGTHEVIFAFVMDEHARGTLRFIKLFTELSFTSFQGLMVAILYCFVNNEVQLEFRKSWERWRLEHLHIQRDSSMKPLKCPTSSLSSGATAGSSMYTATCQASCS
Give bare numbers, as −log10 of the molar value.

Before answering, review these 3 worked examples.
Find the recorded pEC50 belonging to COCCn1c(CN2CCC(c3cccc(OCc4ccc(-c5cnn(C)c5)cc4F)n3)CC2)nc2ccc(C(=O)O)cc21 [Example 21] and report it.
8.14

Find the recorded pEC50 belonging to COCCn1c(CN2CCC(c3cccc(OCc4ccc(-c5cn(C)nn5)cc4F)n3)CC2)nc2ccc(C(=O)O)cc21 [Example 17] and report it.
7.61

Find the recorded pEC50 belonging to COCCn1c(CN2CCC(c3cccc(OCc4ccc(-c5cnn(C(F)F)c5)cc4F)n3)CC2)nc2ccc(C(=O)O)cc21 [Example 16] and report it.
7.93

The record that follows has no pEC50 shown yet.
Find the recorded pEC50 belonging to Cn1cc(C#Cc2ccc(COc3cccc(C4CCN(Cc5nc6ccc(C(=O)O)cc6n5C[C@@H]5CCO5)CC4)n3)c(F)c2)cn1 [Example 22] and report it.
8.51
